Recorded measurements of normalized growth, one per entry
RUN DESCRIPTION: chemical genetic growth profiling, strain panel (AID 1159580);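 also: tested at 20 µM; growth read once vehicle control cultures reached saturation at 30 °C; 1 = growth at the plate median or of vehicle wells; lower values mean less growth of the strain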
MEASUREMENT SETUP: S. cerevisiae deletion strains, growth OD, locus YEL003W, strain gim4, stronger effect = lower value
Among all 5,500 compounds or so, about 2,000 (36%) were called active. Not shown: some 18% with an inconclusive outcome. The list shows a part of the results.
ASSAY READOUT: normalized growth

>  <COMPOUND>
CCCCCCCCCCCCCCCC[n+]1ccccc1

>  <ASSAY READOUT>
normalized growth

>  <READOUT VALUE>
0.0501 (active)

$$$$
>  <COMPOUND>
COc1ccc(C(=O)/C=C/c2ccccc2)cc1

>  <ASSAY READOUT>
normalized growth

>  <READOUT VALUE>
0.856 (active)

$$$$
>  <COMPOUND>
COc1cc([C@@H]2c3cc4c(cc3[C@H](OC(C)=O)[C@H]3COC(=O)[C@H]23)OCO4)cc(OC)c1OC

>  <ASSAY READOUT>
normalized growth

>  <READOUT VALUE>
1.01 (inactive)

$$$$
>  <COMPOUND>
CN(C)CC/C=C1/c2ccccc2COc2ccccc21

>  <ASSAY READOUT>
normalized growth

>  <READOUT VALUE>
1.03 (inactive)

$$$$
>  <COMPOUND>
NC(=O)CC[C@@H](N)C(=O)O

>  <ASSAY READOUT>
normalized growth

>  <READOUT VALUE>
1.02 (inactive)

$$$$
>  <COMPOUND>
CC(=O)[C@H]1CCC2C3CC=C4C[C@@H](OC(=O)CCC(=O)O)CC[C@]4(C)C3CC[C@@]21C (stereo partly drawn)

>  <ASSAY READOUT>
normalized growth

>  <READOUT VALUE>
0.968 (inactive)

$$$$
>  <COMPOUND>
COC(=O)C1=C(C)NC(C)=C(C(=O)OCC(C)C)C1c1ccccc1[N+](=O)[O-] (stereo not drawn)

>  <ASSAY READOUT>
normalized growth

>  <READOUT VALUE>
0.463 (active)

$$$$
>  <COMPOUND>
COCCOC(=O)C1=C(C)NC(C)=C(C(=O)OC(C)C)C1c1cccc([N+](=O)[O-])c1 (stereo not drawn)

>  <ASSAY READOUT>
normalized growth

>  <READOUT VALUE>
1.01 (inactive)

$$$$

---

RUN DESCRIPTION: chemical genetic growth profiling, strain panel (AID 1159580);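 also: tested at 20 µM; growth read once vehicle control cultures reached saturation at 30 °C; 1 = growth at the plate median or of vehicle wells; lower values mean less growth of the strain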
MEASUREMENT SETUP: S. cerevisiae deletion strains, growth OD, locus YNR049C, strain mso1, stronger effect = lower value
Out of some 5,500 compounds screened, about 2,000 (36%) were called active. Roughly 18% stayed inconclusive and do not appear here. The list shows a part of the results.
ASSAY READOUT: normalized growth

>  <MOLECULE>
[N-]=[N+]=CC(=O)OCC(N)C(=O)O (stereo not given)

>  <ASSAY READOUT>
normalized growth

>  <READOUT VALUE>
1

$$$$
>  <MOLECULE>
CN(N=O)C(=O)N[C@@H]1[C@@H](O)[C@H](O)[C@@H](CO)O[C@@H]1O

>  <ASSAY READOUT>
normalized growth

>  <READOUT VALUE>
0.983

$$$$
>  <MOLECULE>
O=C(O)c1cn(-c2ccc(F)cc2)c2cc(N3CCNCC3)c(F)cc2c1=O

>  <ASSAY READOUT>
normalized growth

>  <READOUT VALUE>
0.979

$$$$
>  <MOLECULE>
O=c1oc2ccccc2c(O)c1Cc1c(O)c2ccccc2oc1=O

>  <ASSAY READOUT>
normalized growth

>  <READOUT VALUE>
0.996

$$$$
>  <MOLECULE>
CCC(/C=C/[C@@H](C)[C@H]1CCC2C3CC=C4C[C@@H](O)CC[C@]4(C)C3CC[C@@]21C)C(C)C (stereo not given in full)

>  <ASSAY READOUT>
normalized growth

>  <READOUT VALUE>
0.979

$$$$
>  <MOLECULE>
COc1cc2cc[n+]3cc4c(OC)c(OC)ccc4cc3c2cc1OC

>  <ASSAY READOUT>
normalized growth

>  <READOUT VALUE>
0.972

$$$$
>  <MOLECULE>
CCC(CCC(C)[C@H]1CCC2C3CC=C4C[C@@H](O)CC[C@]4(C)C3CC[C@@]21C)C(C)C (stereo not given in full)

>  <ASSAY READOUT>
normalized growth

>  <READOUT VALUE>
1.01

$$$$
>  <MOLECULE>
CC(C)(Oc1ccc(Cl)cc1)C(=O)O

>  <ASSAY READOUT>
normalized growth

>  <READOUT VALUE>
1.01

$$$$
>  <MOLECULE>
CC(=O)OCC(=O)[C@@]1(O)CCC2C3CC[C@@H]4C[C@H](O)CC[C@]4(C)C3C(=O)C[C@@]21C (stereo not given in full)

>  <ASSAY READOUT>
normalized growth

>  <READOUT VALUE>
1.01

$$$$
>  <MOLECULE>
CC(=O)O[C@H]1C[C@@H](O)C(C)(C)C2C[C@@H](OC(C)=O)[C@]3(C)C(CC[C@@]4(C)[C@H](c5ccoc5)OC(=O)C5OC543)[C@]21C (stereo not given in full)

>  <ASSAY READOUT>
normalized growth

>  <READOUT VALUE>
0.999

$$$$
>  <MOLECULE>
CC(C)c1ccc2c(c1O)CC[C@H]1C3=C(CC[C@]21C)C(=O)OC3

>  <ASSAY READOUT>
normalized growth

>  <READOUT VALUE>
0.976

$$$$
>  <MOLECULE>
ClC(Cl)=C(c1ccc(Cl)cc1)c1ccc(Cl)cc1

>  <ASSAY READOUT>
normalized growth

>  <READOUT VALUE>
0.994

$$$$
>  <MOLECULE>
CN(C)CCC=C1c2ccccc2C=Cc2ccccc21

>  <ASSAY READOUT>
normalized growth

>  <READOUT VALUE>
0.978

$$$$
>  <MOLECULE>
COc1cc([C@@H]2c3cc4c(cc3[C@H](O)[C@H]3COC(=O)[C@@H]23)OCO4)cc(OC)c1OC

>  <ASSAY READOUT>
normalized growth

>  <READOUT VALUE>
1.02

$$$$
>  <MOLECULE>
N[C@@H]1CONC1=O

>  <ASSAY READOUT>
normalized growth

>  <READOUT VALUE>
0.982

$$$$
>  <MOLECULE>
Nc1ccc(C(=O)O)c(O)c1

>  <ASSAY READOUT>
normalized growth

>  <READOUT VALUE>
0.994

$$$$
>  <MOLECULE>
COc1cc2c3cc1Oc1cc(ccc1O)C[C@@H]1c4c(cc(OC)c(O)c4Oc4ccc(cc4)C[C@@H]3N(C)CC2)CC[N+]1(C)C

>  <ASSAY READOUT>
normalized growth

>  <READOUT VALUE>
0.99

$$$$
>  <MOLECULE>
COc1c(O)cccc1O

>  <ASSAY READOUT>
normalized growth

>  <READOUT VALUE>
1.02

$$$$
>  <MOLECULE>
CCCCOc1cc(CC2CNC(=O)N2)ccc1OC (stereo not given)

>  <ASSAY READOUT>
normalized growth

>  <READOUT VALUE>
0.992

$$$$
>  <MOLECULE>
C=CCc1ccccc1OCC(O)CNC(C)C (stereo not given)

>  <ASSAY READOUT>
normalized growth

>  <READOUT VALUE>
0.988

$$$$

---

RUN DESCRIPTION: chemical genetic growth profiling, strain panel (AID 1159580);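 also: tested at 20 µM; growth read once vehicle control cultures reached saturation at 30 °C; 1 = growth at the plate median or of vehicle wells; lower values mean less growth of the strain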
MEASUREMENT SETUP: S. cerevisiae deletion strains, growth OD, locus YLL026W
In all, about 5,500 compounds went through this assay and about 2,000 (36%) were called active. Roughly 18% stayed inconclusive and do not appear here. Cut-off read from the data, not from the text of the source: active = normalized growth mostly below about 0.91 (no sharp cut-off); inconclusive = no clear call, values can overlap the other calls; inactive = mostly above about 0.92. This is one part of the list.
Outcomes: yes (1) = active, no (0) = inactive

>  <MOLECULE>
CC1=C2C(=CO[C@H](C)[C@H]2C)C(=O)C(C(=O)O)=C1O

>  <QUALITATIVE LABEL>
no (0)

$$$$
>  <MOLECULE>
CC(C)(O)[C@@H]1CC[C@](C)([C@H]2[C@@H](O)C[C@@]3(C)C4C[C@H](O[C@@H]5O[C@H](CO)[C@@H](O)[C@H](O)[C@H]5O)C5C(C)(C)[C@@H](O[C@@H]6OC[C@@H](O)[C@H](O)[C@H]6O)CC[C@@]56C[C@@]46CC[C@]23C)O1 (stereo partly specified)

>  <QUALITATIVE LABEL>
no (0)

$$$$
>  <MOLECULE>
C=C1C(N)CC2CC1C2(C)C (stereo unspecified)

>  <QUALITATIVE LABEL>
no (0)

$$$$
>  <MOLECULE>
O=C(O)c1nc2cc(Cl)c(Cl)cc2[nH]c1=O

>  <QUALITATIVE LABEL>
no (0)

$$$$
>  <MOLECULE>
CC(=O)CC(c1ccccc1)c1c(O)c2ccccc2oc1=O (stereo unspecified)

>  <QUALITATIVE LABEL>
no (0)

$$$$
>  <MOLECULE>
C=CCCCCCCCCCCCC(O)CC(O)CO (stereo unspecified)

>  <QUALITATIVE LABEL>
no (0)

$$$$
>  <MOLECULE>
CN(N=O)C(=O)N[C@@H]1[C@@H](O)[C@H](O)[C@@H](CO)O[C@@H]1O

>  <QUALITATIVE LABEL>
no (0)

$$$$
>  <MOLECULE>
CCCCCCc1ccc(O)cc1O

>  <QUALITATIVE LABEL>
yes (1)

$$$$
>  <MOLECULE>
CC(C)c1ccc2c(c1O)CC[C@H]1C3=C(CC[C@]21C)C(=O)OC3

>  <QUALITATIVE LABEL>
no (0)

$$$$
>  <MOLECULE>
CC(=O)Nc1cccc(O)c1

>  <QUALITATIVE LABEL>
no (0)

$$$$
>  <MOLECULE>
O=C1CC[C@]23C=CC(=O)NCCCCNCCCNC(=O)/C=C/c4ccc(c2c4)O[C@@H]3C1

>  <QUALITATIVE LABEL>
no (0)

$$$$
